// provenance: the supplement of paper PMC10567573

B1: TRIM35 (parent)
chain: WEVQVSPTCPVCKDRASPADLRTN

- Variants of: B1
- MEASUREMENT DESCRIPTION: protein stability index of a GFP-peptide fusion (GPS, HEK-293T) (PSI 1-6); higher = more stable;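 further: lentivirally expressed fusions sorted by FACS into six bins by GFP to DsRed ratio, PSI derived from sequencing read proportions per bin multiplied by bin number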
- RUN CONDITIONS: c terminus: a fixed tail appended
READOUT: protein stability index
Answer with a bare number; do not write a unit.

# input variant: R22S ; wanted: its protein stability index 2.91

# input variant: E2R ; wanted: its protein stability index 1.98

# input variant: V5K ; wanted: its protein stability index 2.98
